study.system: UniProt:P35372
Sequence (P35372 whole entry): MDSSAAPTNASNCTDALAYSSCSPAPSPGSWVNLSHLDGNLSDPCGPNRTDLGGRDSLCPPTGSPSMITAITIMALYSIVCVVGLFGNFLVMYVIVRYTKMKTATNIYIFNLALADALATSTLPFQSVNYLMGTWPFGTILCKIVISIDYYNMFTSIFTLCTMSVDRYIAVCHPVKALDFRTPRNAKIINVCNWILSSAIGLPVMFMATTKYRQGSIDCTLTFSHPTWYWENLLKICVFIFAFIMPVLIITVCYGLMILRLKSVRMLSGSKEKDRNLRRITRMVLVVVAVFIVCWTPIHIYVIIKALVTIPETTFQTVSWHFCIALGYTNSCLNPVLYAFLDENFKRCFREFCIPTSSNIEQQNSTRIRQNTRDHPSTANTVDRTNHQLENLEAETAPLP
test.settings: CHO
Description: Ability to displace DAMGO from human recombinant Opioid receptor mu 1 in CHO cells using [35S]- GTP-gamma S Assay
Label Not fulfilled if Ke falls below 6 nM; label Fulfilled in every other case.

I'd appreciate it if you could say whether "CC(C)CC(=N)NCCc1ccc2[nH]c3c(c2c1)C[C@@]1(O)C2Cc4ccc(O)c5c4[C@@]1(CCN2CC1CC1)[C@H]3O5" has Ke at least equal to 6 nM. Fulfilled

I'd appreciate it if you could say whether "CCC(=O)NCCc1ccc2[nH]c3c(c2c1)C[C@@]1(O)C2Cc4ccc(O)c5c4[C@@]1(CCN2CC1CC1)[C@H]3O5" has Ke at least equal to 6 nM. Not fulfilled

I'd appreciate it if you could say whether "O=C(NCc1ccccc1)c1ccc2[nH]c3c(c2c1)C[C@@]1(O)C2Cc4ccc(O)c5c4[C@@]1(CCN2CC1CC1)[C@H]3O5" has Ke at least equal to 6 nM. Not fulfilled

I'd appreciate it if you could say whether "CCCC(=O)NCCc1ccc2[nH]c3c(c2c1)C[C@@]1(O)C2Cc4ccc(O)c5c4[C@@]1(CCN2CC1CC1)[C@H]3O5" has Ke at least equal to 6 nM. Not fulfilled

I'd appreciate it if you could say whether "CCCCCCCNC(=O)c1ccc2[nH]c3c(c2c1)C[C@@]1(O)C2Cc4ccc(O)c5c4[C@@]1(CCN2CC1CC1)[C@H]3O5" has Ke at least equal to 6 nM. Fulfilled

I'd appreciate it if you could say whether "CCNC(=O)NCCc1ccc2[nH]c3c(c2c1)C[C@@]1(O)C2Cc4ccc(O)c5c4[C@@]1(CCN2CC1CC1)[C@H]3O5" has Ke at least equal to 6 nM. Not fulfilled

I'd appreciate it if you could say whether "CCCCC/N=C(\N)Cc1ccc2[nH]c3c(c2c1)C[C@@]1(O)C2Cc4ccc(O)c5c4[C@@]1(CCN2CC1CC1)[C@H]3O5" has Ke at least equal to 6 nM. Not fulfilled

====

study.system: Delta-type opioid receptor (Homo sapiens)
Sequence (P41143 whole entry): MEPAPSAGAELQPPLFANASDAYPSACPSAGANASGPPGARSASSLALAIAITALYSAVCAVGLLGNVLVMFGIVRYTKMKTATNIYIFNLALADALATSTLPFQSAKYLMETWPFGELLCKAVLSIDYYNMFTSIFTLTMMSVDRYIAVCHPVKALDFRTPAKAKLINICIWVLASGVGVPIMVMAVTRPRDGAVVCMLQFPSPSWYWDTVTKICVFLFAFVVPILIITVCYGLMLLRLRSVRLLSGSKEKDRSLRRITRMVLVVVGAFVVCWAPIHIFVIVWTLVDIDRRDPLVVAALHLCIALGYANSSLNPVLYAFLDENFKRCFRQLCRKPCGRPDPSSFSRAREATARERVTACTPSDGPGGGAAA
test.settings: CHO
Description: Ability to displace DPDPE from human recombinant Opioid receptor delta 1 in CHO cells using [35S]- GTP-gamma S Assay
Kindly supply the reported Ke values for the records listed here.
Just the number please, in nM, no unit attached.

Value of Ke reported for the compound "CCC/N=C(\N)Cc1ccc2[nH]c3c(c2c1)C[C@@]1(O)C2Cc4ccc(O)c5c4[C@@]1(CCN2CC1CC1)[C@H]3O5" is 4.41

Value of Ke reported for the compound "CCCCCCNC(=O)NCCc1ccc2[nH]c3c(c2c1)C[C@@]1(O)C2Cc4ccc(O)c5c4[C@@]1(CCN2CC1CC1)[C@H]3O5" is 1.04

Value of Ke reported for the compound "CCNC(=O)NCCc1ccc2[nH]c3c(c2c1)C[C@@]1(O)C2Cc4ccc(O)c5c4[C@@]1(CCN2CC1CC1)[C@H]3O5" is 0.65

Value of Ke reported for the compound "COc1ccc(CNC(=O)c2ccc3[nH]c4c(c3c2)C[C@@]2(O)C3Cc5ccc(O)c6c5[C@@]2(CCN3CC2CC2)[C@H]4O6)cc1" is 6.2

Value of Ke reported for the compound "CCCCNC(=O)NCCc1ccc2[nH]c3c(c2c1)C[C@@]1(O)C2Cc4ccc(O)c5c4[C@@]1(CCN2CC1CC1)[C@H]3O5" is 0.53

====

Kindly supply the reported Ki values for the records listed here.
study.system: UniProt P35372
protocol.description: Ability to displace [3H]DAMGO from human recombinant Opioid receptor mu 1 in CHO cells
Format: cell-based
Just the number please, in nM, no unit attached.

Value of Ki reported for the molecule "CCCC(=N)NCCc1ccc2[nH]c3c(c2c1)C[C@@]1(O)C2Cc4ccc(O)c5c4[C@@]1(CCN2CC1CC1)[C@H]3O5" is 40.8

Value of Ki reported for the molecule "CCCC(=O)NCCc1ccc2[nH]c3c(c2c1)C[C@@]1(O)C2Cc4ccc(O)c5c4[C@@]1(CCN2CC1CC1)[C@H]3O5" is 31

Value of Ki reported for the molecule "CCCCCCNC(=O)NCCc1ccc2[nH]c3c(c2c1)C[C@@]1(O)C2Cc4ccc(O)c5c4[C@@]1(CCN2CC1CC1)[C@H]3O5" is 13.6

Value of Ki reported for the molecule "O=C(NCc1ccccc1)c1ccc2[nH]c3c(c2c1)C[C@@]1(O)C2Cc4ccc(O)c5c4[C@@]1(CCN2CC1CC1)[C@H]3O5" is 43.9

Value of Ki reported for the molecule "CC(=N)NCCc1ccc2[nH]c3c(c2c1)C[C@@]1(O)C2Cc4ccc(O)c5c4[C@@]1(CCN2CC1CC1)[C@H]3O5" is 22.3

Values compiled from ChEMBL document CHEMBL1145106.
